TEST_SYSTEM: recombinant Alk5 kinase (TGFβRI) (Homo sapiens, UniProt P36897)
Construct: purchased Abcam ab105908
Sequence (P36897 34-503): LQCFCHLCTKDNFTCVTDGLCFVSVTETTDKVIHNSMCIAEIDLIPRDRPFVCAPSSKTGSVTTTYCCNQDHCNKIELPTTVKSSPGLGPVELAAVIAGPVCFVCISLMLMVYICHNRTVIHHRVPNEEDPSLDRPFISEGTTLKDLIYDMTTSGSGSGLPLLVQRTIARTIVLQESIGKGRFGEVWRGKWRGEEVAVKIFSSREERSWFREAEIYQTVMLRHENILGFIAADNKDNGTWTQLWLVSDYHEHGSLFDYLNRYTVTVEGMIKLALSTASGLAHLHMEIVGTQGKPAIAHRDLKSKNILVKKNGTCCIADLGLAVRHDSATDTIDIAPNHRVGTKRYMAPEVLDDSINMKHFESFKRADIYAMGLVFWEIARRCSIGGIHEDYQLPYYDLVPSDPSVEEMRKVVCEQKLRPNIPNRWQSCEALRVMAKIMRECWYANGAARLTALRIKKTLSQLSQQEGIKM
TEST: In vitro Alk5 kinase inhibition (Kinase-Glo luminescent kinase assay)
Type: biochemical
CONDITION: values refer to a 100% reduction in activity of the inhibition control GW788388 Hydrate; concentrations of 5 and 10 μM evaluated, ATP 100 μM, 2 h
Each record here notes measured % kinase activity reduction.

- COMPOUND: "COc1ccc(-c2cn3ccc(-c4ccc(O)cc4)cc3n2)cc1 [Compound 16]"
  % kinase activity reduction, %: 75.4
- COMPOUND: "CCOC(=O)c1cc2cc(-c3cnc4ccccn34)ccc2[nH]1 [Compound 31]"
  % kinase activity reduction, %: 79.1
- COMPOUND: "c1ccc2oc(-c3ccn4ccnc4c3)cc2c1 [Compound 26]"
  % kinase activity reduction, %: 93.4
- COMPOUND: "Oc1ccc(-c2ccn3ccnc3c2)cc1 [Compound 12, 4-(Imidazo[1,2-a]pyridin-7-yl)phenol]"
  % kinase activity reduction, %: 87.5

All figures here come from patent US20260070905A1.
